- study system: hP2X3 (Homo sapiens, UniProt P56373)
- Construct: expressed in transfected cells; host or cells: e.g. HEK293 or 1321N1
- Sequence (P56373 1-397): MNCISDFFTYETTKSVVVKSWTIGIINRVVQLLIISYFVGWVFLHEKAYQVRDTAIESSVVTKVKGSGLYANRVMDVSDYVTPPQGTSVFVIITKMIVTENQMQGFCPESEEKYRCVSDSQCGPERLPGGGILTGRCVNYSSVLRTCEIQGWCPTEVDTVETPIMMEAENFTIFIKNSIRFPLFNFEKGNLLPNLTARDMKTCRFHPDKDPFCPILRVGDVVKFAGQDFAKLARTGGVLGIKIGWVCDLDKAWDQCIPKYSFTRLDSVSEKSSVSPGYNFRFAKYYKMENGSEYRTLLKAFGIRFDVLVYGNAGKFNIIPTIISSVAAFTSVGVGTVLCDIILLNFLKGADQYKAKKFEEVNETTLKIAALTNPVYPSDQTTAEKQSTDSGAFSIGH
- assay remarks: Calcium uptake assay (P2X antagonist assay), P2X3 homomer
- Type: cell-based
- measurement parameters: Ca influx (calcium uptake assay), hP2X3; read-out: IC50 hP2X3
pIC50: −log10 of the molar value.
measured quantity: pIC50

Answered cases to consult:
Cc1ccc(-c2cc(C(=O)NCc3ccc(C)nc3)cc(C(O)CN3CC(O)C3)c2)cc1 (stereo not shown) [Compound 388] | > 7.00
Cc1ccc(-c2cc(OCC3CCOC3)cc(C(=O)N[C@H](C)c3ccc(C)nc3)c2)cc1 (stereo partly shown) [Compound 309] | 6.30 to 7.00
Cc1ccc(-c2cc(C(=O)N[C@H](C)c3ccc(C)nc3)cc(C(O)CO)c2)nc1 (stereo partly shown) [Compound 319] | > 7.00

Record Cc1ccc(-c2cc(C(=O)N[C@H](CO)c3cnc(C)nc3)cc(S(C)(=O)=O)c2)cc1 [Compound 221] . Reported pIC50: > 7.00

meta.source: patent US8946439B2
